Entries and their MIC values follow.
# Tested on: Klebsiella pneumoniae 272
endpoint name: MIC (mg/L)

[[record]]
compound = "CC1(C)S[C@@H]2[C@H](NC(=O)[C@H](NC(=O)N3CCNC3=O)c3ccccc3)C(=O)N2[C@H]1C(=O)O [F, azlocillin, reference compound]"
measurement = 40

[[record]]
compound = "CC1(C)S[C@@H]2[C@H](NC(=O)[C@H](NC(=O)Nc3cnc(NCCCO)nc3O)c3ccc(O)cc3)C(=O)N2[C@H]1C(=O)O [B]"
measurement = 10

[[record]]
compound = "COCCNc1ncc(NC(=O)N[C@@H](C(=O)N[C@@H]2C(=O)N3[C@@H]2SC(C)(C)[C@@H]3C(=O)O)c2ccc(O)cc2)c(O)n1 [A]"
measurement = 40

[[record]]
compound = "CCOC(=O)CCNc1ncc(NC(=O)NC(C(=O)NC2C(=O)N3C2SC(C)(C)C3C(=O)O)c2ccc(O)cc2)c(O)n1 (stereo not shown) [D]"
measurement = 10

